Exercise: for every item that follows, state its recorded GI50.
# Test system: SK-OV-3
# protocolNotes: NCI tumour cell line growth inhibition, 48 h
Calls of active or inactive are those of the source. No stated cut-off is given here; in the data, active = GI50 up to about 1.1 µM and inactive = higher.

Asked: Please tell me the measured GI50 for Cn1c(=O)sc2cc(C(=S)N3CCN(c4ccccc4)CC3)ccc21 ; system: SK-OV-3.
Given back: 32.3 µM (inactive)

Asked: Please tell me the measured GI50 for COC(=O)C1=C(C[S+]([O-])c2ccc([N+](=O)[O-])cc2[N+](=O)[O-])ON(C)C1c1ccccc1 (configuration not stated) ; system: SK-OV-3.
Given back: > 100 µM (inactive)

Asked: Please tell me the measured GI50 for COC(=O)c1ccccc1Nc1ccccc1C(=O)OC ; system: SK-OV-3.
Given back: > 100 µM (inactive)

Asked: Please tell me the measured GI50 for O=[N+]([O-])/C(Cl)=C(\Nc1ccccc1)C(Cl)=C(Cl)Cl ; system: SK-OV-3.
Given back: 43.7 µM (inactive)

Asked: Please tell me the measured GI50 for CN(C)C(=O)c1ccc([N+](=O)[O-])cc1 ; system: SK-OV-3.
Given back: > 100 µM (inactive)

Asked: Please tell me the measured GI50 for NC(=O)c1nnc2cc(F)ccc2c1N ; system: SK-OV-3.
Given back: 85.5 µM (inactive)

Asked: Please tell me the measured GI50 for CC1=NN(c2nc(N)nc(/C(C#N)=C\c3ccc([N+](=O)[O-])s3)n2)C(C)(C)C1 ; system: SK-OV-3.
Given back: 8.99 µM (inactive)

Asked: Please tell me the measured GI50 for O=C1CCCCC/C1=C\c1ccc(F)cc1 ; system: SK-OV-3.
Given back: > 100 µM (inactive)

Asked: Please tell me the measured GI50 for c1ccc2c(c1)c1c3c(c4c(n32)=NCCN4)CCC1 ; system: SK-OV-3.
Given back: 37.1 µM (inactive)

Asked: Please tell me the measured GI50 for O=C(NC1=NC2C=CC([N+](=O)[O-])=CC2S1)C(=O)Nn1c(S)nc2ccccc2c1=O (configuration not stated) ; system: SK-OV-3.
Given back: 63 µM (inactive)

Asked: Please tell me the measured GI50 for OC1CCSc2ccccc21 (configuration not stated) ; system: SK-OV-3.
Given back: > 100 µM (inactive)

Asked: Please tell me the measured GI50 for Cc1ccc2c(/C=C/c3ccc(N(C)C)cc3)ccc(C(C)C)cc1-2 ; system: SK-OV-3.
Given back: > 100 µM (inactive)
